measured-target: RXRβ (UniProt P28704)
assay-protocol: holoreceptor transactivation assay, RXRβ
measurement-conditions: holoreceptor transactivation; read-out: RXR Trans. EC50 β
pEC50: −log10 of the molar value.
property-label: pEC50

INSERT INTO results (compound, property_label, endpoint_result) VALUES
  ('CCC1=CC(C)(C)Oc2cc(OC)c(\C(C)=C(F)/C=C/C(C)=C/C(=O)O)cc21 [Compound 120]', 'pEC50', '< 5.00'),
  ('CCOc1cc2c(cc1\C(C)=C/C=C/C(C)=C/C(=O)O)C(CC)=CC(C)(C)O2 [Compound 45]', 'pEC50', '< 6.00');

# context switch: different compound, same pEC50
Fill in the blank: the reported pEC50 of CCOc1cc2c(cc1\C(=C/C=C/C(C)=C/C(=O)O)CC)C(C)=CC(C)(C)O2 [Compound 46] is ____.
< 6.00

---

measured-target: RARβ (Homo sapiens, UniProt P10826)
Sequence (P10826 183-417 limits assumed): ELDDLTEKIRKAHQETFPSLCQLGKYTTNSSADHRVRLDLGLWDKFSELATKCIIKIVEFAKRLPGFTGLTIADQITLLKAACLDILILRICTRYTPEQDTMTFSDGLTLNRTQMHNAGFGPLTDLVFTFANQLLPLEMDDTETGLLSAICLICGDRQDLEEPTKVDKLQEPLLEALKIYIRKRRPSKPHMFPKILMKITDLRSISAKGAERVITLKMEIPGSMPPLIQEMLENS
assay-protocol: chimeric receptor transactivation assay, RARβ
Type: cell-based
measurement-conditions: percentage compared to the standard compound; read-out: RAR Trans. efficacy (number in parentheses) β
Text: Specifically, one such assay is a chimeric receptor transactivation assay which tests for agonist-like activity in the R RAPE and RAR7 receptor subtypes, and which is based on work published by Feigner, P. L. and Holm, M (1989) Focus, 112 is described in detail in U.S. Pat. No. 5,455,265. The specification of U.S. Pat. No. 5,455,265 is hereby expressly incorporated by reference. […]
property-label: Emax (%)
Give a bare numeral; the unit % is implied.

INSERT INTO measurements (smiles_str, endpoint_result) VALUES
  ('CCOc1cc2c(cc1\C(C)=C(F)/C=C/C(C)=C/C(=O)O)C(c1ccccc1)=CC(C)(C)O2', 17),
  ('CCCOc1cc2c(cc1\C(C)=C(F)/C=C/C(C)=C/C(=O)O)C(c1ccccc1)=CC(C)(C)O2', 22),
  ('CCOc1cc2c(cc1\C(=C/C=C/C(C)=C/C(=O)O)CC)C(C)=CC(C)(C)O2', 6),
  ('CCOc1cc2c(cc1\C(CC)=C(F)/C=C/C(C)=C/C(=O)O)C(C(C)(C)C)=CCC2(C)C', 12);

From here, focus on the item given below.
Please look up its Emax: `CC/C(=C/C=C/C(C)=C/C(=O)O)c1cc2c(cc1OC)OC(C)(C)C=C2C(C)C`
25

---

Some compounds, each annotated with its measured RXR Trans. efficacy (number in parentheses) β.
measured-target: RXRβ (UniProt P28704)
Sequence (P28704 1-520): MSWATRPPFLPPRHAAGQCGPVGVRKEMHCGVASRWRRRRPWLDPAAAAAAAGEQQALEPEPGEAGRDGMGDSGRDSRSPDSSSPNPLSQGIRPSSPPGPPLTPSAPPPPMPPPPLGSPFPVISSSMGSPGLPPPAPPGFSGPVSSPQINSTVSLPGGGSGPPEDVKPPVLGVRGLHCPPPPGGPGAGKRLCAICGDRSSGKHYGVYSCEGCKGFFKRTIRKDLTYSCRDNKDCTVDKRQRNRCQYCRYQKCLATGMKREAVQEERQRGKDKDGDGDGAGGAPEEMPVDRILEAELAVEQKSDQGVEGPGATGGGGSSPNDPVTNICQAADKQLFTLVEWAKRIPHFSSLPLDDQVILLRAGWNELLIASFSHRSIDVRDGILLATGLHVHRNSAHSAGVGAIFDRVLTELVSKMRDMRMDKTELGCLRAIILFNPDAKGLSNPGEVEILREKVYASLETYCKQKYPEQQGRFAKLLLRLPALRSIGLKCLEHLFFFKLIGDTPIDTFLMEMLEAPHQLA
assay-protocol: holoreceptor transactivation assay, RXRβ
Type: cell-based
measurement-conditions: percentage compared to the standard compound
Unit % implied. Number only.

Look over these answered cases.
INSERT INTO measurements (compound, endpoint_unit, endpoint_result) VALUES
  ('CCOc1c(\C(=C/C=C/C(C)=C/C(=O)O)CC)cc2c(c1Cl)OC(C)(C)C=C2C(C)C [Compound 51]', '%', 26),
  ('CC(/C=C/C(F)=C(/C)c1cc2c(c(Br)c1OC(C)C)C(C)(C)CC=C2C(C)C)=C\C(=O)O [Compound A-172]', '%', 39);

Query for RXRβ (UniProt P28704): what RXR Trans. efficacy (number in parentheses) β does the record show for CC/C(=C(F)/C=C/C(C)=C/C(=O)O)c1cc2c(cc1OC)OC(C)(C)C=C2C(C)C [Compound 130] ?
73

---

# log10(EC50) per entry
measured-target: RXRγ (UniProt P28705)
assay-protocol: holoreceptor transactivation assay, RXRγ
measurement-conditions: holoreceptor transactivation; read-out: RXR Trans. EC50 γ
Note the log scale: values are log10 of EC50 expressed in nM.

Please review the following examples before continuing.
INSERT INTO results (compound, endpoint_result) VALUES
  ('CCOc1cc2c(cc1\C(=C/C=C/C(C)=C/C(=O)O)CC)C(C)=CCC2(C)C [Compound A-16]', 1.51),
  ('CCOc1c(\C(C)=C/C=C/C(C)=C/C(=O)O)cc2c(c1Cl)OC(C)(C)C=C2C(C)C [Compound 50]', 0.70),
  ('CCC1=CC(C)(C)Oc2cc(OC)c(\C(C)=C/C=C/C(C)=C/C(=O)O)cc21 [Compound 42]', 1.11),
  ('CCOc1c(\C(C)=C(F)/C=C/C(C)=C/C(=O)O)cc2c(c1Cl)OC(C)(C)C=C2C(C)C [Compound 172]', 1.00),
  ('CCOc1cc2c(cc1\C(=C/C=C/C(C)=C/C(=O)O)CC)C(C(C)(C)C)=CCC2(C)C [Compound A-18]', 0.43);

What value of measured log10(EC50) is listed for CCOc1c(\C(=C/C=C/C(C)=C/C(=O)O)CC)cc2c(c1Cl)OC(C)(C)C=C2C(C)C [Compound 51] ?
1.34

Endpoint output: log10(EC50) of COc1cc2c(cc1\C(C)=C/C=C/C(C)=C/C(=O)O)C(C(C)C)=CC(C)(C)O2 [Compound 43] . Value?
0.48

Look at this compound and give its reported log10(EC50). CC/C(=C(F)/C=C/C(C)=C/C(=O)O)c1cc2c(cc1OC)OC(C)(C)C=C2C(C)(C)C [Compound 131]
0.90

Reported log10(EC50) for COc1c(\C(C)=C(F)/C=C/C(C)=C/C(=O)O)cc2c(c1Cl)OC(C)(C)C=C2C(C)C [Compound 170] : what is it?
-0.70

For the compound COc1c(\C(C)=C/C=C/C(C)=C/C(=O)O)cc2c(c1Cl)OC(C)(C)C=C2C(C)C [Compound 49] , what log10(EC50) is on record?
-0.52

---

measured-target: RXRγ (UniProt P28705)
assay-protocol: holoreceptor transactivation assay, RXRγ
measurement-conditions: holoreceptor transactivation; read-out: RXR Trans. EC50 γ
The reader will find reported pEC50 values listed item by item below.
// pEC50 here means minus log10 of the molar concentration (mol/L)

In the examples that follow, each entry is paired with its recorded pEC50.
INSERT INTO measurements (molecule, measured_target, endpoint_result) VALUES
  ('COc1cc2c(cc1\C(C)=C(F)/C=C/C(C)=C/C(=O)O)C(C(C)C)=CC(C)(C)O2 [Compound 121]', 'RXRγ (UniProt P28705)', 8.00),
  ('CCOc1c(\C(C)=C(F)/C=C/C(C)=C/C(=O)O)cc2c(c1Br)C(C)(C)CC=C2C(C)(C)C [Compound A-174]', 'RXRγ (UniProt P28705)', 8.70),
  ('CCOc1cc2c(cc1\C(CC)=C(F)/C=C/C(C)=C/C(=O)O)C(C(C)(C)C)=CCC2(C)C [Compound A-83]', 'RXRγ (UniProt P28705)', 8.70),
  ('CC/C(=C/C=C/C(C)=C/C(=O)O)c1cc2c(cc1OC)OC(C)(C)C=C2C(C)C [Compound 44]', 'RXRγ (UniProt P28705)', 9.40);

Which measured pEC50 value corresponds to CCOc1cc2c(cc1\C(C)=C(F)/C=C/C(C)=C/C(=O)O)C(C(C)(C)C)=CCC2(C)C [Compound A-82] ?
8.70

---

// EC50 lookup, one value per entry
measured-target: RXRγ (UniProt P28705)
assay-protocol: holoreceptor transactivation assay, RXRγ
measurement-conditions: holoreceptor transactivation; read-out: RXR Trans. EC50 γ

INSERT INTO results (smiles_str, measured_target, property_label, endpoint_result) VALUES
  ('CCC1=CC(C)(C)Oc2cc(OC)c(\C(C)=C(F)/C=C/C(C)=C/C(=O)O)cc21', 'RXRγ (UniProt P28705)', 'EC50', '> 10000 nM'),
  ('CCOc1cc2c(cc1\C(CC)=C(F)/C=C/C(C)=C/C(=O)O)C(C)=CC(C)(C)O2', 'RXRγ (UniProt P28705)', 'EC50', '> 1000 nM'),
  ('CCOc1cc2c(cc1\C(C)=C(F)/C=C/C(C)=C/C(=O)O)C(CC)=CC(C)(C)O2', 'RXRγ (UniProt P28705)', 'EC50', '> 1000 nM');

Continue with the next molecule.
Field: EC50 (RXRγ (UniProt P28705)). Entry: `CCOc1cc2c(cc1\C(=C/C=C/C(C)=C/C(=O)O)CC)C(C)=CC(C)(C)O2`
> 1000 nM
